- assay text: Plasma pharmacokinetics with loading dose and weekly or twice weekly maintenance dosing, fed (Example 5)
- Assay type: in vivo, human
- measurement context: human, plasma, oral, Panel III (150 mg BID Days 1-2, then 300 mg Q7D; SF2a/b, fed), Day 1; read-out: Mean Cmax (SD)
measurement type: Cmax (ng/mL)
Number only, in ng/mL; omit the unit.

Query string: Look up Cmax of COc1cc(NC(C(=O)c2c[nH]c3ccc(OC(F)(F)F)cc23)c2ccc(Cl)cc2OC)cc(S(C)(=O)=O)c1 (stereo not shown) [Compound (a)] and report it.
Result string: 741

----------
- assay text: Effect of food on plasma pharmacokinetics after single oral dose of SF2a/b (Example 2)
- Format: in vivo, human
- measurement context: both sexes, human, plasma, oral, 800 mg, Treatment D: single 800 mg (SF2b), fasted; read-out: Cmax, Median
measurement type: Cmax (ng/mL)
Number only, in ng/mL; omit the unit.

Query string: Look up Cmax of COc1cc(NC(C(=O)c2c[nH]c3ccc(OC(F)(F)F)cc23)c2ccc(Cl)cc2OC)cc(S(C)(=O)=O)c1 (stereo not shown) and report it.
Result string: 1450
